test: Solubility assessment: saturated solutions in SGF, FeSSIF and water, concentration by HPLC; format: physicochemical; details: water, thermodynamic from solid; H2O, 1 h
Structures can show the parent of a compound that is named as a salt.
Observation type: solubility at 1 h (µg/mL)
Answer format: numeric, µg/mL implied, no suffix.

input: Would you mind telling me what solubility at 1 h value was observed for CC(C)Oc1ccc(-c2nc(-c3cccc4c3CC[C@@H]4NCCO)no2)cc1C#N [Form CS3 of ozanimod hydrochloride, ozanimod hydrochloride] ?
output: 1100

These entries and their values trace back to patent US10882830B2.
